Recorded measurements of inhibition, one per entry
assay: M. tuberculosis growth inhibition, HTS (AID 1259417);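 note: bacteria grown with compound for 5 days at 37 °C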; details: M. tuberculosis DsRed fluorescence growth inhibition; active compounds read high; concentration not given here
Screen size: about 1,100 compounds; about 760 (69%) were called active. So high a share suggests a set chosen from earlier hits. This is one part of the list.
Recorded Endpoint: inhibition (%)

[[record]]
molecule = "CCOC(=O)c1c(NC(=O)c2cc(-n3cnnc3)ccc2Cl)sc2c1CCCC2"
recorded_endpoint = "inhibition"
observed_value = 37.7

[[record]]
molecule = "O=C1C=C(c2ccccc2)C(=O)c2ccccc21"
recorded_endpoint = "inhibition"
observed_value = 12

[[record]]
molecule = "COc1ccccc1-c1nnc(Nc2nc3c(F)cccc3s2)o1"
recorded_endpoint = "inhibition"
observed_value = 30.8

[[record]]
molecule = "O=C(Nc1nnc(-c2ccc(Br)cc2)o1)c1cc(Cl)sc1Cl"
recorded_endpoint = "inhibition"
observed_value = 8.56

[[record]]
molecule = "O=C(Nc1ncc(Cc2cccc(C(F)(F)F)c2)s1)c1cccs1"
recorded_endpoint = "inhibition"
observed_value = 24.1

[[record]]
molecule = "CCOC(=O)c1c(NC(=O)COc2ccc(C(C)C)cc2)sc2c1CCC2"
recorded_endpoint = "inhibition"
observed_value = 44.6

[[record]]
molecule = "O=C(OCC(=O)c1c[nH]c2ccccc12)c1ccc([N+](=O)[O-])s1"
recorded_endpoint = "inhibition"
observed_value = 61.6

[[record]]
molecule = "Cc1ccc(C(=O)Nc2ccc([N+](=O)[O-])cc2C)cc1I"
recorded_endpoint = "inhibition"
observed_value = 97.4

[[record]]
molecule = "CCOC(=O)COc1ccc(C(=O)Nc2cccc(Cl)c2C)cc1"
recorded_endpoint = "inhibition"
observed_value = 97.7

[[record]]
molecule = "CCOCCOC(=O)COc1ccc2c(-c3ccccc3)cc(=O)oc2c1"
recorded_endpoint = "inhibition"
observed_value = 64

[[record]]
molecule = "Cn1c(NC(=S)Nc2ccccc2)nc2ccccc21"
recorded_endpoint = "inhibition"
observed_value = 21.4

[[record]]
molecule = "Cc1c(Cl)cccc1NC(=O)c1ccc(OC(C)C(=O)OC2CCCCC2)cc1 (configuration not stated)"
recorded_endpoint = "inhibition"
observed_value = 38.3

[[record]]
molecule = "CCc1cccc2c(C(=O)COC(=O)c3ccc([N+](=O)[O-])s3)c[nH]c12"
recorded_endpoint = "inhibition"
observed_value = 91.9

[[record]]
molecule = "COc1ccc(-c2nsc(SCC(=O)NCc3ccco3)n2)cc1"
recorded_endpoint = "inhibition"
observed_value = 93.1

[[record]]
molecule = "CCOC(=O)CSc1nnc2c3sc4nc(N5CCOCC5)c5c(c4c3ncn12)CC(C)(C)OC5"
recorded_endpoint = "inhibition"
observed_value = 53.1

[[record]]
molecule = "COC(=O)c1c(NC(=O)c2c(F)c(F)c(F)c(F)c2F)sc2c1CCC2"
recorded_endpoint = "inhibition"
observed_value = 98.2

[[record]]
molecule = "Cc1ccc(Nc2ccccc2N)cc1"
recorded_endpoint = "inhibition"
observed_value = 99.5

[[record]]
molecule = "COC(=O)COc1ccc(NC(=O)c2ccccc2C)cc1"
recorded_endpoint = "inhibition"
observed_value = 83.1

[[record]]
molecule = "CCOC(=O)COc1ccc(S(=O)(=O)Nc2c(C)cccc2CC)cc1"
recorded_endpoint = "inhibition"
observed_value = 53

[[record]]
molecule = "Cc1sc2ncn(C(C)C(=O)OC3CCCCC3)c(=O)c2c1C (configuration not stated)"
recorded_endpoint = "inhibition"
observed_value = 6.18

[[record]]
molecule = "CC(C)(C)c1ccc(C(=O)Nc2nccs2)cc1Br"
recorded_endpoint = "inhibition"
observed_value = 17.6

[[record]]
molecule = "Cc1ccc(C)c(C(=O)Nc2nnc(-c3cc(C)ccc3C)o2)c1"
recorded_endpoint = "inhibition"
observed_value = 87.9

[[record]]
molecule = "C=CCOC(=O)COc1ccc2c(C)c(-c3ccccc3)c(=O)oc2c1"
recorded_endpoint = "inhibition"
observed_value = 71.8

[[record]]
molecule = "O=C(Nc1nnc(-c2ccc(Br)cc2)o1)c1ccc(Cl)s1"
recorded_endpoint = "inhibition"
observed_value = 32.9

[[record]]
molecule = "O=C(Nc1sc2c(c1C(=O)Nc1ccccc1)CCC2)c1cccc(Br)c1"
recorded_endpoint = "inhibition"
observed_value = 0.927

[[record]]
molecule = "Cc1cc(=O)oc2cc(OCC(=O)OC3CCCCC3)ccc12"
recorded_endpoint = "inhibition"
observed_value = 36.4

[[record]]
molecule = "O=C(c1cccc([N+](=O)[O-])c1)N1N=C(c2ccc(Br)cc2)CC1(O)C(F)(F)F (configuration not stated)"
recorded_endpoint = "inhibition"
observed_value = 5.59

[[record]]
molecule = "CCn1c(NCc2c(O)ccc3ccccc23)nc2ccccc21"
recorded_endpoint = "inhibition"
observed_value = 77.8

[[record]]
molecule = "CCOC(=O)COc1ccc(S(=O)(=O)Nc2cccc(Cl)c2C)cc1"
recorded_endpoint = "inhibition"
observed_value = 14.4

[[record]]
molecule = "O=C(COc1cccc2ccccc12)c1ccc(Cl)cc1"
recorded_endpoint = "inhibition"
observed_value = 17

[[record]]
molecule = "CCCC(=O)Nc1nnc(-c2cc(C)ccc2C)o1"
recorded_endpoint = "inhibition"
observed_value = 10.9

[[record]]
molecule = "COC(=O)c1c(NC(=O)c2c(F)c(F)c(F)c(F)c2F)sc2c1CCCCC2"
recorded_endpoint = "inhibition"
observed_value = 97.4

[[record]]
molecule = "CCOc1ccc2c3c(c(=O)oc2c1OCC)CCCC3"
recorded_endpoint = "inhibition"
observed_value = 31.8

[[record]]
molecule = "C=CCOC(=O)COc1ccc2cc(-c3ccccc3)c(=O)oc2c1"
recorded_endpoint = "inhibition"
observed_value = 93.1

[[record]]
molecule = "C=CCOC(=O)COc1ccc2cc(-c3ccc(Cl)cc3)c(=O)oc2c1"
recorded_endpoint = "inhibition"
observed_value = 98.9

[[record]]
molecule = "Oc1ccc(CNc2ccccc2O)cc1"
recorded_endpoint = "inhibition"
observed_value = 98.3

[[record]]
molecule = "Nc1ccccc1Nc1ccccc1"
recorded_endpoint = "inhibition"
observed_value = 98.6

[[record]]
molecule = "CNc1nc(SC)nc2ccsc12"
recorded_endpoint = "inhibition"
observed_value = 99.7

[[record]]
molecule = "COC(=O)C(C)Oc1ccc(-c2nccc(-c3cccs3)n2)cc1 (configuration not stated)"
recorded_endpoint = "inhibition"
observed_value = 43.6

[[record]]
molecule = "CCOc1cccc(C(=O)Nc2sc3c(c2C(N)=O)CCC3)c1"
recorded_endpoint = "inhibition"
observed_value = -0.558

[[record]]
molecule = "Cc1ccc(C(=O)Nc2sc(C)c(C)c2C(N)=O)cc1I"
recorded_endpoint = "inhibition"
observed_value = 3.89

[[record]]
molecule = "CC(C)(C)c1cnc(NC(=O)c2ccccc2O)s1"
recorded_endpoint = "inhibition"
observed_value = 71.4

[[record]]
molecule = "O=C(Nc1nnc(-c2ccc(F)cc2)o1)c1ccc(Br)s1"
recorded_endpoint = "inhibition"
observed_value = 66.4

[[record]]
molecule = "COc1cccc(C(=O)Nc2sc3c(c2C(N)=O)CCCCCC3)c1"
recorded_endpoint = "inhibition"
observed_value = -2.93

[[record]]
molecule = "Cn1c(NC(=O)c2ccccc2)nc2ccccc21"
recorded_endpoint = "inhibition"
observed_value = 98.3

[[record]]
molecule = "CCCC(=O)Nc1nnc(-c2ccc(C)cc2C)o1"
recorded_endpoint = "inhibition"
observed_value = 2.17

[[record]]
molecule = "CCOC(=O)COc1ccc(S(=O)(=O)Nc2ccc(C)c(C)c2)cc1"
recorded_endpoint = "inhibition"
observed_value = -1.13

